I'd appreciate it if you could supply CRF1R Emax values for the items below.
- experimental-system: CRF1R
- experiment: cell-based or functional assay
Ends that are not written are not given here.
Express it in %; write the number only.

Prompt line: # input binder: SQEPPISLDLPTGLLREVLEMTKADQLAQQAHSNRKLLDIA-NH2 [SEQ ID NO 98] ; wanted: its CRF1R Emax
Response line: 4

Prompt line: Subsequent entry: SEEPPISLDLTFHLLREVLEMARAEQLAQQAHTNARILARV-NH2 [SEQ ID NO 161]
Response line: 77

Prompt line: Subsequent entry: ZGPPISIDLSLELLRKMIEIEKQEKEKQQATTNARILARV (C-terminal amide) [SEQ ID NO 142]
Response line: 85.3

Prompt line: Subsequent entry: DNPSLSIDLPLHLLRTLLELARTQSQRERAEQNAIIFASV-NH2 [SEQ ID NO 179]
Response line: 78.9

Prompt line: Subsequent entry: ZGPPISIDLPFQLLRKMIEIEKQEKEKQQATTNRLLLDTV (C-terminal amide) [SEQ ID NO 16]
Response line: 98

Prompt line: Subsequent entry: IVLSLDVPIGLLQELLEMARAEQLAQQAHSNRKLMEII-NH2 [SEQ ID NO 1]
Response line: 64

Prompt line: Subsequent entry: ZGPPISIDVPTYLLRKMIEIEKQEKEKQQATTNARILARV (C-terminal amide) [SEQ ID NO 170]
Response line: 9

Prompt line: Subsequent entry: IVLSLDVPIGLLQILLEQTKADAAREQATTNARILARV-NH2 [SEQ ID NO 108]
Response line: 3

Prompt line: Subsequent entry: ZGPPISIDLPHHLLRKMIEIEKQEKEKQQAANNRLLLDTI (C-terminal amide) [SEQ ID NO 205]
Response line: 88

Prompt line: Subsequent entry: IVLSLDVPIGLLQILLEQERARAAREQATTNARILARV-NH2 [SEQ ID NO 119]
Response line: 3

Prompt line: Subsequent entry: SQEPPISLDLPFQLLREVLEMTKADQLAQQAHSNRKLLDIA-NH2 [SEQ ID NO 91]
Response line: 4

Prompt line: Subsequent entry: ZGPPISIDLPLYLLRKMIEIEKQEKEKQQAANNRLLLDT (C-terminal amide) [SEQ ID NO 81]
Response line: 81

Prompt line: Subsequent entry: ZGPPISIDLPFQLLRKMIEIEKQEKEKQQATTNRLLLATV (C-terminal amide) [SEQ ID NO 17]
Response line: 98

Prompt line: Subsequent entry: ZGPPISIDLPIPLLRKMIEIEKQEKEKQQAANNRLLLDTI (C-terminal amide) [SEQ ID NO 26]
Response line: 16

Prompt line: Subsequent entry: ZGPPISIDLPSYLLRKMIEIEKQEKEKQQAANNRLLLDTI (C-terminal amide) [SEQ ID NO 56]
Response line: 14

Prompt line: Subsequent entry: SQEPPISLDLTFGLLREVLEMTKADQLAQQAHSNRKLLDIA-NH2 [SEQ ID NO 88]
Response line: 11.2

Prompt line: Subsequent entry: DNPSLSIDLPLQLLRTLLELARTQSQRERAEQNAIIFASV-NH2 [SEQ ID NO 176]
Response line: 26.9

Prompt line: Subsequent entry: ZGPPISIDLPTLLLRKMIEIEKQEKEKQQAANNRLLLDTI (C-terminal amide) [SEQ ID NO 51]
Response line: 48

Prompt line: Subsequent entry: IVLSLDVPIGLLQILLEMTKADQLAQQAHSNRKLLDIA-NH2 [SEQ ID NO 155]
Response line: 16

Prompt line: Subsequent entry: ZGPPISIDLPTSLLRKMIEIEKQEKEKQQAANNRLLLDTI (C-terminal amide) [SEQ ID NO 43]
Response line: 10

Prompt line: Subsequent entry: ZGPPISIDLPTVLLRKMIEIEKQEKEKQQAANNRLLLDTI (C-terminal amide) [SEQ ID NO 46]
Response line: 17

Prompt line: Subsequent entry: IVLSLDVPIGLLQILLEQARAAAREQATTNARILARV-NH2 [SEQ ID NO 141]
Response line: 7

Prompt line: Subsequent entry: ZGPPISIDLPLHLLRKMIEIEKQEKEKQQATTNARILARV (C-terminal amide) [SEQ ID NO 145]
Response line: 91.3

Prompt line: Subsequent entry: ZGPPISIDLPNYLLRKMIEIEKQEKEKQQAANNRLLLDTI (C-terminal amide) [SEQ ID NO 64]
Response line: 57
